Listed here: items and their measured activity, negative = inhibition.
test: Stat Signaling Pathway (AID 446); conditions: ME-180 (cervical carcinoma) SIE beta-lactamase reporter, IL-6 stimulated, 5 h; at 17.2 µM (top of the series) unless noted;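 note: ME-180 cervical cancer cells given 40 pM IL-6 alongside compound; SIE-controlled beta-lactamase reporter measured as 460/530 nm FRET emission ratio; % is set by controls: 0 for no effect and ±100 for the full control effect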
Inconclusive results are not listed. Calls of active or inactive are those of the source. Calls come from the whole dose curve; as a rule, active = well fitted curve in either direction with a large enough effect (not every such curve was filed as active); inconclusive = small, poorly fitted or top-dose-only effect, or another doubt; inactive = flat fitted curve, though single readings scatter.
assay-endpoint: activity, negative = inhibition

[[record]]
compound = "CCN(CC)CCN1C(=O)C(=O)/C(=C(/O)c2ccc(OC(C)C)cc2)C1c1ccncc1 (stereo unspecified)"
result_value = "-2.31% (inactive)"

[[record]]
compound = "Cc1cc(/C=N/n2cnnc2)c(C)n1-c1ccc2c(c1)OCO2"
result_value = "-0.639% (inactive)"

[[record]]
compound = "Cc1c(C)c2c(c(C)c1O)CC[C@@](C)(CN1CCN(c3cc(N4CCCC4)nc(N4CCCC4)n3)CC1)O2"
result_value = "19.8% [at 38 µM] (inactive)"

[[record]]
compound = "COCCOC(=O)c1c(C)nc(SCC(=O)Nc2ccc(OC)cc2)c(C#N)c1-c1ccco1"
result_value = "-16.8% (inactive)"

[[record]]
compound = "COCc1[nH]nc2c1C(c1ccccc1OC)C(C#N)=C(N)O2 (stereo unspecified)"
result_value = "-17.1% (inactive)"

[[record]]
compound = "CC(=O)c1cc2c(=O)c3ccccc3oc2nc1C"
result_value = "7.33% (inactive)"

[[record]]
compound = "C[n+]1cccc(CNC(=O)/C=N/O)c1"
result_value = "7.83% (inactive)"

[[record]]
compound = "Cc1occc(=O)c1OC(=O)Nc1ccccc1"
result_value = "7.55% (inactive)"

[[record]]
compound = "CC1(C)Cc2c(sc3c2C2=NCCN2C=N3)CO1"
result_value = "1.72% (inactive)"

[[record]]
compound = "Cn1c(NCCN2CCCCC2)cc(=O)n(C)c1=O"
result_value = "9.99% (inactive)"

[[record]]
compound = "COC(=O)CSc1nnc(C)c(=O)[nH]1"
result_value = "5.67% (inactive)"


---

system: DIV17; test: qHTS profiling for inhibitors of Plasmodium falciparum proliferation (AID 504749); note: nearly all actives have a fitted effect of over 60% in size; note: potency is the fitted concentration of half-maximal effect; conditions: P. falciparum in erythrocytes, SYBR Green DNA, 72 h; series mostly up to 28.7 µM
Inconclusive results are not listed. The source made the active and inactive calls. Calls follow the shape of the dose curve; as a rule, active = well fitted inhibition curve with a large enough effect; inconclusive = small, poorly fitted or top-dose-only effect; inactive = flat fitted curve, though single readings scatter.
assay-endpoint: Potency

[[record]]
compound = "COC1CC2CCC(C)[C@](O)(O2)C(=O)C(=O)N2CCCCC2C(=O)OC(C(C)CC2CCC(O)C(OC)C2)CC(=O)C(C)/C=C(/C)C(O)C(OC)C(=O)C(C)CC(C)C=CC=C/C=C\\1C (stereo partly drawn)"
tested_on = "DIV17"
result_value = "1690 nM (active)"

[[record]]
compound = "CC1(C)SC2[C@@H](N=CN3CCCCCC3)C(=O)N2[C@H]1C(=O)O (stereo partly drawn)"
tested_on = "DIV17"
result_value = "inactive"

[[record]]
compound = "CC1(C)CC1C(=O)N/C(=C/CCCCSCC(N)C(=O)O)C(=O)O (stereo not drawn)"
tested_on = "DIV17"
result_value = "inactive"

[[record]]
compound = "O=C(O)Cc1sc(-c2ccc(Cl)cc2)nc1-c1ccccc1"
tested_on = "DIV17"
result_value = "inactive"

[[record]]
compound = "CCC(C(=O)O)C1OC(C(C)C(O)C(C)C(=O)C(CC)C2OC3(C=CC(O)C4(CCC(C)(C5CCC(O)(CC)C(C)O5)O4)O3)C(C)CC2C)C(C)CC1C (stereo not drawn)"
tested_on = "DIV17"
result_value = "75.7 nM (active)"

[[record]]
compound = "C/C(=C(/CCOC(=O)C(C)C)SS/C(CCOC(=O)C(C)C)=C(\\C)N(C=O)Cc1cnc(C)nc1N)N(C=O)Cc1cnc(C)nc1N"
tested_on = "DIV17"
result_value = "inactive"

[[record]]
compound = "Nc1nc(Cl)nc2c1ncn2[C@@H]1O[C@H](CO)[C@H](O)C1F (stereo partly drawn)"
tested_on = "DIV17"
result_value = "inactive"

[[record]]
compound = "OCC(CO)NC1C[C@](O)(CO)[C@@H](O)[C@H](O)[C@H]1O (stereo partly drawn)"
tested_on = "DIV17"
result_value = "inactive"


---

test system: DIV17; experiment: qHTS profiling for inhibitors of Plasmodium falciparum proliferation (AID 504749); note: nearly all actives have a fitted effect of over 60% in size; details: P. falciparum in erythrocytes, SYBR Green DNA, 72 h; series mostly up to 28.7 µM
Inconclusive results are not listed. Calls of active or inactive are those of the source. The call rests on the fitted dose curve; in most records, active means well fitted inhibition curve with a large enough effect; inconclusive means small, poorly fitted or top-dose-only effect; inactive means flat fitted curve, though single readings scatter.
Possible outcomes: active, inactive

[[record]]
compound = "Nc1nc(F)nc2c1ncn2[C@@H]1O[C@H](CO)[C@@H](O)[C@H]1O"
assigned_label = "inactive"

[[record]]
compound = "NC(=O)NC(CCC(=O)O)C(=O)O (centres undefined)"
assigned_label = "inactive"

[[record]]
compound = "CCN(CC)CC(=O)Nc1c(C)cc(C)cc1C"
assigned_label = "inactive"

[[record]]
compound = "OCC1O[C@H](O[C@H]2C(O)C(O)C(O)O[C@@H]2CO)C(O)C(O)C1O (some centres undefined)"
assigned_label = "inactive"

[[record]]
compound = "C[C@H](O)[C@@H]1C(=O)N2C(C(=O)O)=C(SCCN=CN)C[C@@H]12"
assigned_label = "inactive"

[[record]]
compound = "CC[C@@H]1/C=C(\\C)C[C@H](C)C[C@H](OC)[C@H]2O[C@@](O)(C(=O)C(=O)N3CCCC[C@H]3C(=O)O[C@H](/C(C)=C/[C@@H]3CC[C@H](Cl)[C@H](OC)C3)[C@H](C)[C@@H](O)CC1=O)[C@H](C)C[C@@H]2OC"
assigned_label = "inactive"

[[record]]
compound = "CN1[C@H]2CC(OC(=O)[C@H](CO)c3ccccc3)C[C@H]1[C@H]1O[C@H]12 (some centres undefined)"
assigned_label = "inactive"

[[record]]
compound = "C=C1/C(=C\\C=C2/CCC[C@]3(C)[C@@H]([C@H](C)/C=C/[C@@H](O)C4CC4)CC[C@@H]23)C[C@@H](O)C[C@@H]1O"
assigned_label = "inactive"

[[record]]
compound = "OCC(O)C(O)C(O)C(O)CO (centres undefined)"
assigned_label = "inactive"

[[record]]
compound = "CN(C)CC/C=C1\\c2ccccc2COc2ccc(CC(=O)O)cc21"
assigned_label = "inactive"

[[record]]
compound = "Nc1nc(/C(=C/CC(=O)O)C(=O)NC2C(=O)N3C(C(=O)O)=CCSC23)cs1 (centres undefined)"
assigned_label = "inactive"

[[record]]
compound = "NC(C(=O)O)c1ccc(O)cc1 (centres undefined)"
assigned_label = "inactive"

[[record]]
compound = "CCN(CC)CCOCCOC(=O)C(CC)(CC)c1ccccc1 (tested in a mixture with another compound)"
assigned_label = "active"

[[record]]
compound = "CCC(C)C(N)C(=O)O (centres undefined)"
assigned_label = "inactive"

[[record]]
compound = "CO/N=C(/C(=O)N[C@@H]1C(=O)N2C(C(=O)O)=C(CSc3nc(C)c(CC(=O)O)s3)CS[C@H]12)c1csc(N)n1"
assigned_label = "inactive"

[[record]]
compound = "Cc1ccc(Nc2ncccc2C(=O)O)cc1C"
assigned_label = "inactive"

[[record]]
compound = "CC(=O)NC1[C@H](O)C[C@@](O)(C(=O)O)O[C@H]1[C@H](O)[C@H](O)CO (some centres undefined)"
assigned_label = "inactive"

[[record]]
compound = "CO[C@H]1OC2O[C@@]3(C)CC[C@H]4[C@H](C)CC[C@@H]([C@H]1C)[C@@]24OO3 (some centres undefined)"
assigned_label = "active"

[[record]]
compound = "CC[C@]1([C@H]2O[C@@H]([C@@H]3O[C@](O)(CO)[C@@H](C)C[C@H]3C)C[C@H]2C)CC[C@@H]([C@]2(C)CC[C@@]3(C[C@@H](O)[C@@H](C)[C@@H]([C@H](C)[C@H](OC)[C@H](C)C(=O)O)O3)O2)O1"
assigned_label = "active"

[[record]]
compound = "CC[C@H](C)[C@H]1O[C@]2(CC[C@@H]1C)C[C@@H]1C[C@@H](C/C=C(\\C)[C@H](O[C@@H]3C[C@H](OC)[C@H](O[C@@H]4C[C@H](OC)[C@@H](O)[C@H](C)O4)[C@H](C)O3)[C@@H](C)/C=C/C=C3\\CO[C@@H]4[C@H](O)C(C)=C[C@@H](C(=O)O1)[C@]34O)O2"
assigned_label = "active"

[[record]]
compound = "C=C1CC[C@H](O)C/C1=C/C=C1\\CCC[C@]2(C)[C@@H]([C@H](C)CC[C@@H](O)C(C)(C)O)CC[C@@H]12"
assigned_label = "active"

[[record]]
compound = "CC1OC(OCC2OC(Oc3c(-c4ccc(OCCO)c(OCCO)c4)oc4cc(OCCO)cc(O)c4c3=O)C(O)C(O)C2O)[C@@H](O)C(O)C1O (some centres undefined)"
assigned_label = "inactive"

[[record]]
compound = "CC(=O)NC[C@@H]1CN(c2ccc(N3CCOCC3)c(F)c2)C(=O)O1"
assigned_label = "inactive"

[[record]]
compound = "CCN1CCN(C(=O)NC(C(=O)NC2C(=O)N3C(C(=O)O)=C(CSc4nnnn4C)CSC23)c2ccc(O)cc2)C(=O)C1=O (centres undefined)"
assigned_label = "inactive"

[[record]]
compound = "CCCCN1CC(O)C(O)C(O)C1CO (centres undefined)"
assigned_label = "inactive"

[[record]]
compound = "CC(=O)C1(O)Cc2c(O)c3c(c(O)c2C(OC2CC(N)C(O)C(C)O2)C1)C(=O)c1c(O)cccc1C3=O (centres undefined)"
assigned_label = "active"

[[record]]
compound = "O=C(O)[C@H]1C[C@@H](CP(=O)(O)O)CCN1"
assigned_label = "inactive"

[[record]]
compound = "CC(=O)CC(c1ccccc1)C1C(=O)Oc2ccccc2C1=O (centres undefined)"
assigned_label = "inactive"

[[record]]
compound = "OCCN1CC(O)C(O)C(O)C1CO (centres undefined)"
assigned_label = "inactive"

[[record]]
compound = "CC(C)C(=O)OCC(=O)[C@@]12OC(C3CCCCC3)O[C@@H]1CC1C3CCC4=CC(=O)C=C[C@]4(C)C3[C@@H](O)C[C@@]12C (some centres undefined)"
assigned_label = "active"

[[record]]
compound = "CCCC(=O)Nc1c(I)cc(I)c(C[C@H](CC)C(=O)O)c1I"
assigned_label = "inactive"

[[record]]
compound = "Cc1onc(-c2c(F)cccc2Cl)c1C(=O)NC1C(=O)N2C1SC(C)(C)C2C(=O)O (centres undefined)"
assigned_label = "inactive"

[[record]]
compound = "CC(=O)OCC(=O)[C@@]1(O)CCC2C3C[C@H](C)C4=CC(=O)C=CC4(C)C3C(O)CC21C (some centres undefined)"
assigned_label = "inactive"

[[record]]
compound = "CC1(C)SC2C(NC(=O)C(C(=O)O)c3ccccc3)C(=O)N2C1C(=O)O (centres undefined)"
assigned_label = "inactive"

